- assayNotes: amyloid nucleation score (Sup35N fusion, yeast selection) (log enrichment); library NNK2; higher = more nucleation; inactive = no reads after selection;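 further: zero at mode of non-aggregating sequences after 7 days selection at 30°C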
readoutName: amyloid nucleation score
Enter a number only.

Example entries and their recorded answers appear below.
| substance | readoutName | assayValue |
| --- | --- | --- |
| CLKAFIWLRRLEGQI | amyloid nucleation score | 0.082 |
| CPWSQSRLAYYTCGYYTASS | amyloid nucleation score | 0.193 |

Read the entry PAIISFQYLFGRRSELEKM and write its reported amyloid nucleation score.
5.57

----------
- assayNotes: amyloid nucleation score (Sup35N fusion, yeast selection) (log enrichment); library NNK1; higher = more nucleation; inactive = no reads after selection
Reported amyloid nucleation score values are given for each entry in this list.
Enter a number only.

Example entries and their recorded answers appear below.
| residueString | amyloid nucleation score |
| --- | --- |
| LFGGFMFLGKWDQLHGHNEC | 0.799 |
| ERSSAPECNFKYISYTGKS | -0.881 |
| SIFRTKTTFLRNVQLEWLGG | -0.211 |
| AHCLECGMNVNGTIF | -0.81 |
| RSVMVMLPS | 0.022 |

Read the entry KESECITS and write its reported amyloid nucleation score.
-0.849

Read the entry VFYFELKG and write its reported amyloid nucleation score.
-0.183

Read the entry FYMGGDCVYNECQGEIRLSL and write its reported amyloid nucleation score.
-0.234

Read the entry CMSVVNLRCPDRTLVSLLPY and write its reported amyloid nucleation score.
-0.326

----------
- assayNotes: amyloid nucleation score (Sup35N fusion, yeast selection) (log enrichment); library NNK2; higher = more nucleation; inactive = no reads after selection
readoutName: amyloid nucleation score
Enter a number only.

Example entries and their recorded answers appear below.
| substance | amyloid nucleation score |
| --- | --- |
| FCMNTQH | 5.29 |
| RTRSSYGVVLKIRKWCPEVA | 1.18 |

# context switch: different substance, same amyloid nucleation score
Read the entry ESSVITGLWHV and write its reported amyloid nucleation score.
-0.081

----------
- assayNotes: amyloid nucleation score (Sup35N fusion, yeast selection) (log enrichment); library NNK3; higher = more nucleation; inactive = no reads after selection
readoutName: amyloid nucleation score

| substance | amyloid nucleation score |
| --- | --- |
| RNIELSAPLFWSAAASDVVK | inactive |
| MTSMLVTMMPCWVMRFVVWE | inactive |
| SVMLDNTVVFTIRSGHCSES | 1.13 |
| LNLGHDGYPNTSARVFHFC | inactive |
| IIMRDYTAMCI | inactive |

Read the entry VTKPFTIKGTI and write its reported amyloid nucleation score.
inactive

Read the entry NSGYRWEKSLSWMALLGYGC and write its reported amyloid nucleation score.
-0.788

Read the entry FGHYRYEFCELSGHGMGVDA and write its reported amyloid nucleation score.
inactive

Read the entry RLGFDITKITWCGIYFAGWV and write its reported amyloid nucleation score.
inactive

Read the entry ILIYVQML and write its reported amyloid nucleation score.
0.521

Read the entry IWIRAVDLGLDGLPSFFSIS and write its reported amyloid nucleation score.
inactive

Read the entry TVEVFNHMRERHNYMS and write its reported amyloid nucleation score.
inactive

Read the entry LYLGTSYHRNC and write its reported amyloid nucleation score.
inactive

Read the entry EERRDLAPTDLTWKDFRALQ and write its reported amyloid nucleation score.
inactive

Read the entry SEALCWIVTSVCRLRVFLV and write its reported amyloid nucleation score.
inactive

Read the entry CAVGISLRPFFMISLQLSYL and write its reported amyloid nucleation score.
inactive

Read the entry LKTCFIP and write its reported amyloid nucleation score.
inactive
